Molecular target: T1, Recombinant STUB1 protein, spanning aa25-aa153 (UniProt Q9UNE7 25-153)
T1 chain: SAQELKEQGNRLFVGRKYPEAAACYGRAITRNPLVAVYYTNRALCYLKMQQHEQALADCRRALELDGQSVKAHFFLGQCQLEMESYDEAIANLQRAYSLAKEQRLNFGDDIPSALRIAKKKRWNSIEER
Test: FP
property: IC50 (µM)

# binder, readout.units, value
rows = [
    ("Ac-TIEEVD-OH", "µM", 2.7),
]
